Every entry's value here was drawn from patent US20050031631A1.

SYSTEM_TESTED: human IgE from a pool of sera (n=10) of Pj monosensitive allergic patients (human)
EXPERIMENT_NOTES: ELISA inhibition: pool of sera (n=10, 1:5) preincubated with the protein (0.25-20 ug/ml), then on wells coated with rParj1; bound IgE detected
Each entry below carries its reported % inhibition.
Return type: number; implicit unit %.

Worked set:
{"BINDER": "PjA mutant of Par j 1.0102 (Cys29->Ser and Cys30->Ser) (protein, not shown: small tags and cut ends) QETCGTMVRALMPCLPFVQGKEKEPSKGSSSGAKRLDGETKTGPQRVHACECIQTAMKTYSDIDGKLVSEVPKHCGIVDSKLPPIDVNMDCKTVGVVPRQPQLPVSLRHGPVTGPSDPAHKARLERPQIRVPPPAPEKA", "UNIT_SYMBOL": "%", "% inhibition": 16}
{"BINDER": "PjB mutant of Par j 1.0102 (Cys50->Ser and Cys52->Ser) (protein, not shown: small tags and cut ends) QETCGTMVRALMPCLPFVQGKEKEPSKGCCSGAKRLDGETKTGPQRVHASESIQTAMKTYSDIDGKLVSEVPKHCGIVDSKLPPIDVNMDCKTVGVVPRQPQLPVSLRHGPVTGPSDPAHKARLERPQIRVPPPAPEKA", "UNIT_SYMBOL": "%", "% inhibition": 85}
{"BINDER": "PjD mutant of Par j 1.0102 (Cys29->Ser, Cys30->Ser, Cys50->Ser and Cys52->Ser) (protein, not shown: small tags and cut ends) QETCGTMVRALMPCLPFVQGKEKEPSKGSSSGAKRLDGETKTGPQRVHASESIQTAMKTYSDIDGKLVSEVPKHCGIVDSKLPPIDVNMDCKTVGVVPRQPQLPVSLRHGPVTGPSDPAHKARLERPQIRVPPPAPEKA", "UNIT_SYMBOL": "%", "% inhibition": 15}
{"BINDER": "recombinant Par j 1.0102, major allergen of Parietaria judaica (wild type) (protein, not shown: small tags and cut ends) QETCGTMVRALMPCLPFVQGKEKEPSKGCCSGAKRLDGETKTGPQRVHACECIQTAMKTYSDIDGKLVSEVPKHCGIVDSKLPPIDVNMDCKTVGVVPRQPQLPVSLRHGPVTGPSDPAHKARLERPQIRVPPPAPEKA", "UNIT_SYMBOL": "%", "% inhibition": 95}

Next binder, % inhibition to be filled in.
Kindly indicate its recorded % inhibition. Item: PjC mutant of Par j 1.0102 (Cys4->Ser, Cys29->Ser and Cys30->Ser) (protein, not shown: small tags and cut ends) QETSGTMVRALMPCLPFVQGKEKEPSKGSSSGAKRLDGETKTGPQRVHACECIQTAMKTYSDIDGKLVSEVPKHCGIVDSKLPPIDVNMDCKTVGVVPRQPQLPVSLRHGPVTGPSDPAHKARLERPQIRVPPPAPEKA
14
